Ref: ChEMBL document CHEMBL4476868

target: Acetyl-coenzyme A synthetase, cytoplasmic (Homo sapiens, UniProt Q9NR19); assay: Inhibition of N-terminal 6x-histidine tagged human ACSS2 expressed in insect cells assessed as reduction in pyrophosphate production using CoA and ATP incubated for 30 mins by pyrophosphatase coupled enzymatic assay
Sequence (Q9NR19 whole entry): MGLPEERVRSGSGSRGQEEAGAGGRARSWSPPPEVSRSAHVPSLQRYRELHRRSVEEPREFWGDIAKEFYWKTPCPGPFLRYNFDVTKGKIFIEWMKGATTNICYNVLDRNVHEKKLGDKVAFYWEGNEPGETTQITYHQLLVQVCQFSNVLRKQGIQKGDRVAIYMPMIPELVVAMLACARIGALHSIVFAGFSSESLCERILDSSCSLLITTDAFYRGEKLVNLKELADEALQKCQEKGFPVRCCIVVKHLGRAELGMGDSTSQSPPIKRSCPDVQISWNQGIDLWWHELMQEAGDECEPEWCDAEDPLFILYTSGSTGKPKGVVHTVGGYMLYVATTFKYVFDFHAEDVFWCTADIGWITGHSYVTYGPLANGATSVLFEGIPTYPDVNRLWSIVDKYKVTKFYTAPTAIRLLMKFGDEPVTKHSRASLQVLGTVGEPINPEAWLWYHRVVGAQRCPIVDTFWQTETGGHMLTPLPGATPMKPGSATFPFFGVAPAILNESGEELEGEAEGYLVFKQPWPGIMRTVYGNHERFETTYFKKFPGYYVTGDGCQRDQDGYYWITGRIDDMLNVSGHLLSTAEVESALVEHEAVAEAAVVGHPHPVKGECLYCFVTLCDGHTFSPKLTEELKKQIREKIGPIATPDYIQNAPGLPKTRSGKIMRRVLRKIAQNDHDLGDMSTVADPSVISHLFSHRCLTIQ
pIC50: −log10 of the molar value.
value-type: pIC50

[[record]]
molecule = "CCn1c(C(O)(c2ccccc2)c2ccccc2)nc2ccc(C(=O)N[C@H]3CCC(=O)N(C)C3)cc21"
value = "6.60 to 7.30"

[[record]]
molecule = "CCn1c(C(O)(c2ccccc2)c2ccccc2)nc2ccc(OCCN(C)C(C)=O)cc21"
value = "< 6.00"

[[record]]
molecule = "Cn1c(C(O)(c2ccccc2)c2ccccc2)nc2ccc(S(C)(=O)=O)cc21"
value = "6.60 to 7.30"

[[record]]
molecule = "CCn1c(C(O)(c2ccccc2)c2ccccc2)nc2ccc(C(=O)NC3CCN(C)CC3)cc21"
value = "6.00 to 6.60"

[[record]]
molecule = "CCn1c(C(O)(c2ccccc2)c2ccccc2)nc2c(F)cc(C(=O)NC)cc21"
value = "6.00 to 6.60"

[[record]]
molecule = "Cc1ccc2nc(C(O)(c3ccccc3)c3ncccc3F)n(C)c2c1 (stereo not given)"
value = "< 6.00"

[[record]]
molecule = "CCn1cc(-c2cc3c(cc2F)nc(C(O)(c2ccccc2)c2ccccc2)n3CC)cn1"
value = "6.60 to 7.30"

[[record]]
molecule = "CCn1c(C(O)(c2ccccc2)c2ccccc2)nc2ccc(CNC(=O)COC)cc21"
value = "6.60 to 7.30"


Data point: "CCn1c(C(O)(c2ccccc2)c2ccccc2)nc2ccc(OC)cc21" ; pIC50 = 6.00 to 6.60

The reported value for CCn1c(C(O)(c2ccccc2)c2ccccc2)nc2ccc(C(=O)NC(C)CO)cc21 (stereo not given) in terms of pIC50 is 6.00 to 6.60

Noted for "CCn1c(C(O)(c2ccccc2)c2ccccc2)nc2ccc(C3(O)COC3)cc21" : its pIC50 reads 6.00 to 6.60

Reported pIC50 of "CCc1ccc2nc(C(O)(c3ccccc3)c3ccccc3)n(CC)c2c1" : 6.00 to 6.60

pIC50 in this record for CCn1c(C(O)(c2ccccc2)c2ccccc2)nc2ccc(OCC(C)O)cc21 (stereo not given) : < 6.00

Record summary for "CCn1c(C(O)(c2ccccc2)c2ccccc2)nc2ccc(C(=O)Nc3ccc(OC)cc3)cc21" : reported pIC50 = 6.60 to 7.30

get_value(item= CCn1c(C(O)(c2ccccc2)c2ccccc2)nc2ccc(C(F)C#N)cc21 (stereo not given) , readout=pIC50) returns 6.60 to 7.30

The recorded pIC50 for "CCn1c(C(O)(c2ccccc2)c2ccccc2)nc2ccc(C(=O)N[C@@H]3CCC[C@@H](O)C3)cc21" is 6.60 to 7.30

Reported pIC50 of "CCn1c(C(O)(c2ccc(F)cc2F)c2ccc(F)cc2F)nc2ccc(C(=O)NCCO)cc21" : 6.00 to 6.60

Value of measured pIC50 for the entry "CCONC(=O)c1ccc2nc(C(O)(c3ccccc3)c3ccccc3)n(CC)c2c1" : 6.60 to 7.30

Noted for "CCn1c(C(O)(c2ccccc2)c2ccccc2)nc2ccc(CCO)cc21" : its pIC50 reads 6.60 to 7.30

pIC50 for C[C@@H](O)CNC(=O)c1ccc2nc(C(O)(c3ccccc3)c3ccccc3)n(C3CCNC3)c2c1 (stereo not given in full) is < 6.00
